Data provenance is patent US11566007B2.

Here, each record is paired with measured IC50 data.
# Target Desc: KRAS WT (Homo sapiens (Human), UniProt P01116+P62937)
# Sequence (P01116-2 other isoform, or with tags, fused parts or gaps): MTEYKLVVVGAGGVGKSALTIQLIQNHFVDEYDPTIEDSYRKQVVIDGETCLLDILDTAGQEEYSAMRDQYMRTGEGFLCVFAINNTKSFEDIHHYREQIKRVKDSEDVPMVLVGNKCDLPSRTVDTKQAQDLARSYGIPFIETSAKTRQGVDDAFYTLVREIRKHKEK
# Sequence (P62937 whole entry): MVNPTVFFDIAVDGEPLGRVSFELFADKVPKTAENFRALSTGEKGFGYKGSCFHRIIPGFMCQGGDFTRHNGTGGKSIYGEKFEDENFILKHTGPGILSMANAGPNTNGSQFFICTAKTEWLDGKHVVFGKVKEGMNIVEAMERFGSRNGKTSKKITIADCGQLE
# Assay Comment: Ras-Raf (BRAF RBD) disruption / FRET / MOA assay, KRAS WT
# Format: biochemical
# Test Context: read-out: IC50* KRAS WT FRET data

See these solved cases before continuing.
C=CC(=O)N1CC[C@]2(C1)OCN([C@H](C(=O)N[C@H]1Cc3cc(cc(C(F)F)c3)-c3ccc4c(c3)c(c(-c3cccnc3[C@H](C)OC)n4CC)CC(C)(C)COC(=O)[C@@H]3CCCN(N3)C1=O)C(C)C)C2=O (atropisomer, axis not shown) [Example A557]    0.1 to 1 µM
C=CC(=O)N1CC[C@H](C(=O)N(C)[C@H](C(=O)N[C@H]2Cc3cc(O)cc(c3)-c3ccc4nc(-c5cccnc5COC)c(n4c3)CC(C)(C)COC(=O)[C@@H]3CCCN(N3)C2=O)C(C)C)C1 [Example A243]    > 10 µM
C=CC(=O)N1CC[C@H](C(=O)N(C)[C@H](C(=O)N[C@H]2Cc3cc(O)cc(c3)-c3ccc4c(c3)c(c(-c3cccnc3)n4[C@H](C)C#N)CC(C)(C)COC(=O)[C@@H]3CCCN(N3)C2=O)C(C)C)C1 [Example A193]    1 to 10 µM
CO[C@@H](C)c1ncccc1-c1c2c3cc(ccc3n1CC(F)(F)F)N1CCO[C@@H](C[C@H](NC(=O)[C@H](C(C)C)N3CC[C@]4(CCN(C(=O)C#CC(C)(C)N(C)C)C4)C3=O)C(=O)N3CCC[C@H](N3)C(=O)OCC(C)(C)C2)C1 (atropisomer, axis not shown) [Example A642]    1 to 10 µM
C=CC(=O)N1CC2(CCCN2C(=O)N(C)[C@H](C(=O)N[C@H]2Cc3nc(cs3)-c3ccc4c(c3)c(c(-c3cccnc3[C@H](C)OC)n4CC)CC(C)(C)COC(=O)[C@@H]3CCCN(N3)C2=O)C(C)C)C1 (atropisomer, axis not shown) [Example A667]    0.01 to 0.1 µM
C=CC(=O)N1CCN(C(=O)N(C)[C@H](C(=O)N[C@H]2Cc3nc(cs3)-c3ccc4c(c3)c(c(-c3cccnc3[C@H](C)OC)n4CC(F)(F)F)CC(C)(C)COC(=O)[C@@H]3CCCN(N3)C2=O)C(C)C)CC1 (atropisomer, axis not shown) [Example A465]    0.01 to 0.1 µM
C=CC(=O)N1CC[C@H](C(=O)N(C)[C@H](C(=O)N[C@H]2Cc3cccc(c3)-c3ccc4c(c3)c(c(-c3cccnc3[C@H](C)OC)n4CC)CC(C)(C)COC(=O)[C@@H]3CCCN(N3)C2=O)C(C)(C)F)C1 (atropisomer, axis not shown) [Example A693]    1 to 10 µM

IC50 for CCn1c(-c2cnccc2[C@H](C)OC)c2c3cc(ccc31)-c1cc(O)cc(c1)C[C@H](NC(=O)[C@H](C(C)C)N(C)C(=O)[C@H]1CCN(C(=O)C#CCN(C)C)C1)C(=O)N1CCC[C@H](N1)C(=O)OCC(C)(C)C2 [Example A123] is 0.1 to 1 µM
